// data source = ChEMBL document CHEMBL1201862

Kindly state GI50 for each of the entries shown.
# Test system: Malme-3M
# TEST: NCI tumour cell line growth inhibition, 48 h
Counter-ions that a name gives are not always drawn. Activity calls are given as the source filed them. No stated cut-off is given here; in the data, active = GI50 up to about 1.1 µM and inactive = higher.

Could you tell me which GI50 is on file for COC(=O)C(=O)C(C(=O)C(=O)Nc1nnc(S)[nH]1)c1nc2ccc([N+](=O)[O-])cc2nc1O (stereo not given) ?
> 100 µM (inactive)

Also check O=C(Nn1c(-c2ccccc2)nc2ccccc2c1=O)c1ccc(Cl)cc1
> 100 µM (inactive)

Item: CCc1ccc(Nc2cc(=O)[nH]c(SCc3ccccc3)n2)cc1
> 100 µM (inactive)

How about this compound: Cc1c(F)c(N)c2c(=O)cc(-c3ccc(NC(=O)CN(C)C)c(F)c3)oc2c1F
> 100 µM (inactive)

# next compound below
# input compound: N=c1ccn2c(n1)O[C@H]1[C@H](O)[C@@H](CO)O[C@H]12 [ANCITABINE HYDROCHLORIDE] ; wanted: its GI50
3.03 µM (inactive)

###

# Tested on: CAKI-1
# TEST: NCI tumour cell line growth inhibition, 48 h
Calls of active or inactive are those of the source. Cut-off read from the data, not from the text of the source: active = GI50 up to about 1.1 µM and inactive = higher.
Allowed answers: True = active, False = inactive

What classification did COc1cccc2c1CCc1ccccc1CC2=O end up with in this test?
False

Others:
// param item: Cc1cn(C2CC(O)C(COC(N)=O)O2)c(=O)[nH]c1=O (stereo unspecified) ; yields the recorded call
False

Also CC(C)(CO)NC(=O)c1cccc(C(=O)NC(C)(C)CO)c1Br , if possible.
False

###

Answer each item with its documented GI50.
# Tested on: HOP-18
# TEST: NCI tumour cell line growth inhibition, 48 h
Calls of active or inactive are those of the source. Cut-off read from the data, not from the text of the source: active = GI50 up to about 1.1 µM and inactive = higher.

# get_value(readout= GI50, system= HOP-18) for Cc1ccc(NC(=O)/C(=N\NC(N)=S)C(C#N)c2ccccc2C)cc1C (stereo not given)
> 100 µM (inactive)

Give one value of GI50 per listed molecule.
1. COc1ccc2[nH]c3c(C)c4c(c(C)c3c2c1)CN(C)CC4
2. CC#CC#C/C=C1\C=CC2(OC=CC2O)O1 (stereo not given)
3. C[n+]1ccc(Nc2ccc(NC(=O)c3ccc(Nc4cc[n+](C)c5ccc([N+](=O)[O-])cc45)cc3[N+](=O)[O-])cc2)cc1
4. Cc1ccc(NCC(=O)N2CC(=O)Nc3ccccc32)cc1

1: 10.6 µM (inactive); 2: 4.79 µM (inactive); 3: 20.3 µM (inactive); 4: > 100 µM (inactive)

###

# Test system: A498
# TEST: NCI tumour cell line growth inhibition, 48 h
Active and inactive are the calls of the source. Rule as the data show it: active = GI50 up to about 1.1 µM and inactive = higher.
Select the correct class. Options are true (1) for active, false (0) for inactive and nothing else.

Before answering, review these 5 worked examples.
For this compound, state the assay outcome: CCOC(=O)CCC(NC(=O)c1ccc(OCc2nc3cc(C(F)(F)F)ccc3nc2-c2ccccc2)cc1)C(=O)OCC (stereo not drawn)
false (0)

What do you have for CC(C)(C)OC(=O)N1C(c2cccnc2)=CC[C@H]2C3CC=C(c4cccnc4)[C@@]3(C)CC[C@@H]21 (stereo partly drawn) ?
false (0)

Please answer likewise for Cc1ncc([N+](=O)[O-])n1CCNC(=O)CCCCn1ccnc1[N+](=O)[O-]
false (0)

Would you kindly repeat that for N=C(N)NS(=O)(=O)c1ccc(NNc2c3ccccc3nc3c(C(=O)Nc4ccc(S(=O)(=O)Nc5ncccn5)cc4)cccc23)cc1 ?
false (0)

Then CC(C)[C@](O)(C(=O)OCC1=CC[N+]2([O-])CC[C@@H](O)[C@@H]12)[C@H](C)O (stereo partly drawn) [INDICINE N-OXIDE] ?
false (0)

Further cases:
# lookup: test call for CNC(=S)N/N=C(/C)CCC/C(C)=N/NC(=S)NC
false (0)

Follow-up item: Cc1c(F)c(N)c2c(=O)cc(-c3ccc(NC(=O)CN(C)C)c(F)c3)oc2c1F
false (0)
